Readings of binding signal for the listed binders
Biological target: T1, RBFOX1 RRM (Homo sapiens, UniProt Q9NWB1 109-208)
T1 sequence: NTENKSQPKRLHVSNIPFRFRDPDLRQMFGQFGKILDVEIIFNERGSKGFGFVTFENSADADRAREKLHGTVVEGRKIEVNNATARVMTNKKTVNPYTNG
Experiment: EMSA; HiTS-Eq, 1 nM pool, 10 min; buffer printed only for the single-RNA assays: 10 mM Tris pH 7.5, 150 mM NaCl, 3.4 mM EDTA, 0.001% NP-40, 30 C
Settings: tags: His6 N-terminal (pET28a); label: 5' 32P
The full ranking holds about 16,000 sequences; the median of “ka relative to ugcaugu” is about 0.0091, and the highest 2% start at about 0.032. This excerpt belongs to a sample that is enriched for the highest values.

// worked examples, binding signal included
CUGAUGA (DNA:RNA) RNA: GGGAGACCGGAAUUCAGAUUGUCCCUGAUGAUUAAAUCCCGUCGUAGCCACCA DNA 1: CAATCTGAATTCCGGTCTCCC DNA 2: TGGTGGCTACGACGGGATT; 0.0162 KA relative to UGCAUGU
UGAAUGA (DNA:RNA) RNA: GGGAGACCGGAAUUCAGAUUGUCCUGAAUGAUUAAAUCCCGUCGUAGCCACCA DNA 1: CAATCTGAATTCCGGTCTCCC DNA 2: TGGTGGCTACGACGGGATT; 0.0319 KA relative to UGCAUGU
GAAAUGC (DNA:RNA) RNA: GGGAGACCGGAAUUCAGAUUGUCCGAAAUGCUUAAAUCCCGUCGUAGCCACCA DNA 1: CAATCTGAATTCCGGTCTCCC DNA 2: TGGTGGCTACGACGGGATT; 0.0136 KA relative to UGCAUGU

Consider the additional binder presented here.
Ask: // binding signal lookup, key: CCGUUGC (DNA:RNA) RNA: GGGAGACCGGAAUUCAGAUUGUCCCCGUUGCUUAAAUCCCGUCGUAGCCACCA DNA 1: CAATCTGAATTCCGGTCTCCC DNA 2: TGGTGGCTACGACGGGATT
Reply: 0.0124 KA relative to UGCAUGU

// provenance: paper PMC9911399
